target-system: human glycine transporter 2 (GlyT2 or SLC6A5) (Homo sapiens, UniProt Q9Y345)
Construct: expressed in transfected cells; host or cells: Xenopus laevis oocytes injected with cRNA
Sequence (Q9Y345 1-797): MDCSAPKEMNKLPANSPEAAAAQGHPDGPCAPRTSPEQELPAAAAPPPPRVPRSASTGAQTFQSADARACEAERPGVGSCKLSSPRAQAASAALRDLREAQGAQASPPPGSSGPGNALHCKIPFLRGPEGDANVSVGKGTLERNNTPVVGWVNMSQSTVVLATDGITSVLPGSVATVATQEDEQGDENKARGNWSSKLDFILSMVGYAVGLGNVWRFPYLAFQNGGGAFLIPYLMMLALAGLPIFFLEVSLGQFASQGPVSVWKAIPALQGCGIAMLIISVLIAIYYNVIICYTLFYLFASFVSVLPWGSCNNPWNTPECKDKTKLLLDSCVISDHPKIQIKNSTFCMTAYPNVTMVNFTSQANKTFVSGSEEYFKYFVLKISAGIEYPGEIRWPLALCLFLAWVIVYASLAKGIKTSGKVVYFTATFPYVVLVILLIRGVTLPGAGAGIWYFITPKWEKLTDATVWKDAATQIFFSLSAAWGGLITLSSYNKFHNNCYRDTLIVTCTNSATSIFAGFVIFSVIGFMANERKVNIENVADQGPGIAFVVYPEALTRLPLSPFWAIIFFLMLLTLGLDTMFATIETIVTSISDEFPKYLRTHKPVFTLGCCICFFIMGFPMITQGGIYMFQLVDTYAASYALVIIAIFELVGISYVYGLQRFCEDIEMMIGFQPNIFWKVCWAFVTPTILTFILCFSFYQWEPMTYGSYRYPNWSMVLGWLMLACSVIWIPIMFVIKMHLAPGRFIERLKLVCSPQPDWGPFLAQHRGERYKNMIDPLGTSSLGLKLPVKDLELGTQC
run-description: Inhibition of glycine transport currents, two-electrode voltage clamp in oocytes expressing WT GlyT2
Assay type: cell-based
protocol-conditions: D-Head group stereochemistry; GlyT2
Entries and their % Maximal inhibition
endpoint-name: % Maximal inhibition (%)

{"compound": "CCCC/C=C\\CCCCCCCC(=O)N[C@H](CCCCN)C(=O)O", "target-system": "human glycine transporter 2 (GlyT2 or SLC6A5) (Homo sapiens, UniProt Q9Y345)", "value-units": "%", "data-value": 79.7}
{"compound": "CCC=CCCCCCCCCCCCC(=O)NC(CCCCN)C(=O)O (stereo not shown)", "target-system": "human glycine transporter 2 (GlyT2 or SLC6A5) (Homo sapiens, UniProt Q9Y345)", "value-units": "%", "data-value": 91.8}
{"compound": "CCCCCC/C=C\\CCCCCCCC(=O)N[C@H](CCCCN)C(=O)O", "target-system": "human glycine transporter 2 (GlyT2 or SLC6A5) (Homo sapiens, UniProt Q9Y345)", "value-units": "%", "data-value": 96.2}
{"compound": "CCCCC=CCCCCCCCCCCCC(=O)NC(CCCCN)C(=O)O (stereo not shown)", "target-system": "human glycine transporter 2 (GlyT2 or SLC6A5) (Homo sapiens, UniProt Q9Y345)", "value-units": "%", "data-value": 87.6}

* * *

Readings of IC50 for the listed compounds
target-system: human glycine transporter 2 (GlyT2 or SLC6A5) (Homo sapiens, UniProt Q9Y345)
Construct: expressed in transfected cells; host or cells: Xenopus laevis oocytes injected with cRNA
run-description: Inhibition of glycine transport currents, two-electrode voltage clamp in oocytes expressing WT GlyT2
Format: cell-based
protocol-conditions: L-Head group stereochemistry; GlyT2; 30 μM glycine; 95% confidence interval in brackets
Procedure: All N-acyl amino acids were synthesized as previously described ([13]). See Supporting Information for full details. […] GlyT2 is electrogenic, allowing activation to be measured via the two-electrode voltage clamp technique. Oocytes were voltage clamped at −60 mV, and whole-cell currents generated by the substrate were recorded with a Geneclamp 500 amplifier (Axon Instruments), digitized by a Powerlab 2/20 chart recorder (ADInstruments). […]
endpoint-name: IC50 (µM)

{"compound": "CCC=CCCCCCCCCCCCC(=O)NC(CCCCN)C(=O)O (stereo not shown)", "data-value": 0.0108}
{"compound": "CCCCC=CCCCCCCCC(=O)NC(CCCCN)C(=O)O (stereo not shown)", "data-value": 0.703}
{"compound": "CCCCCCC=CCCCCCCCC(=O)NC(CCCCN)C(=O)O (stereo not shown)", "data-value": 0.0666}
{"compound": "CCCCC=CCCCCCCCCCCCC(=O)NC(CCCCN)C(=O)O (stereo not shown)", "data-value": 0.0675}

Origin of values: paper PMC7949037
